Target: T1, hVEGF109 (human, UniProt P15692-4 34-135, limits assumed)
T1 construct: Numbers count on the mature 165-amino acid VEGF, not on the precursor; also called human VEGF (hVEGF 109)
T1 sequence (looked up): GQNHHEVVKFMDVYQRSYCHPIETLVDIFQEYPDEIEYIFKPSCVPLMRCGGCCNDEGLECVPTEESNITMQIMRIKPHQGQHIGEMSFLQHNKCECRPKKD
Experiment: phage competition ELISA (phage IC50), hVEGF109 in solution and on the plate, VEGF inferred
RECORDED METRIC: IC50 (nM)

[[record]]
binder = "5A12 4.2 LC.A34N (Fab, V domains shown, 5A12 4.2 variant; Fab on phage in the IC50 assay; also called LC-34N) VH: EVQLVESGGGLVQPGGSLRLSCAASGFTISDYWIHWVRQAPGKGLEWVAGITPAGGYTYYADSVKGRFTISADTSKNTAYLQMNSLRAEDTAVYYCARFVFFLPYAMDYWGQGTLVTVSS VL: DIQMTQSPSSLSASVGDRVTITCRASQFLSSFGVNWYQQKPGKAPKLLIYGASSLYSGVPSRFSGSGSGTDFTLTISSLQPEDFATYYCQQGLLSPLTFGQGTKVEIK"
quantitative_result = 221

[[record]]
binder = "5A12 4.2 LC.Q89W (Fab, V domains shown, 5A12 4.2 variant; Fab on phage in the IC50 assay; also called LC-89W) VH: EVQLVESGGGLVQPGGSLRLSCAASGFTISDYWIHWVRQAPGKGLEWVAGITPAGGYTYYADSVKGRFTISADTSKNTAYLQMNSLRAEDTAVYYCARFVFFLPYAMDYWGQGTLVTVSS VL: DIQMTQSPSSLSASVGDRVTITCRASQFLSSFGVAWYQQKPGKAPKLLIYGASSLYSGVPSRFSGSGSGTDFTLTISSLQPEDFATYYCWQGLLSPLTFGQGTKVEIK"
quantitative_result = 2.55

[[record]]
binder = "5A12 4.2 LC.Q89H (Fab, V domains shown, 5A12 4.2 variant; Fab on phage in the IC50 assay; also called LC-89H) VH: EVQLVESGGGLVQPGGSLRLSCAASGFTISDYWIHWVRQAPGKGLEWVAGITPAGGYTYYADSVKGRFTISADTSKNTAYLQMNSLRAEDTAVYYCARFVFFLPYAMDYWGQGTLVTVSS VL: DIQMTQSPSSLSASVGDRVTITCRASQFLSSFGVAWYQQKPGKAPKLLIYGASSLYSGVPSRFSGSGSGTDFTLTISSLQPEDFATYYCHQGLLSPLTFGQGTKVEIK"
quantitative_result = 0.138

